# Tested on: LOC_OS04G57630-cb004
# PROTOCOL_SUMMARY: thermal shift delta Tm vs DMSO control; higher = stronger stabilization (binding);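 also: purified Escherichia coli-expressed rice kinase domain construct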
# MEASUREMENT_CONDITIONS: 12.5 µM; protein concentration 2 µM
READOUT: thermal shift delta Tm (°C)
Write the answer as a number in °C, unit excluded.

>>> measured_value("O=C(NC(NC(=S)Nc1ccc(F)c([N+](=O)[O-])c1)C(Cl)(Cl)Cl)C(c1ccccc1)c1ccccc1 (configuration not stated)")
1.38
>>> measured_value("O=C(O)c1ccc2c3c1cccc3c(=O)n1c3ccccc3nc21")
0.77
>>> measured_value("CCc1cncnc1N1CCN(Cc2nc3ccc(C(F)(F)F)cc3[nH]2)CC1")
-0.2
>>> measured_value("COc1ccc(S(=O)(=O)N(CCO)c2ccccc2CN(C)C/C=C/c2ccc(Cl)cc2)cc1 [KN-93 Phosphate]")
0.49
>>> measured_value("c1cn2cc(-c3ccc4cn[nH]c4c3)nc(Nc3ccc(N4CCOCC4)cc3)c2n1 [Entospletinib (GS-9973)]")
0.36
>>> measured_value("COc1cc2ncnc(Nc3cccc(Cl)c3)c2cc1OC [AG-1478 (Tyrphostin AG-1478)]")
0.54
>>> measured_value("C=CC(=O)N1CCC(Oc2cc3c(Nc4ccc(Cl)c(Cl)c4F)ncnc3cc2OC)CC1 [Poziotinib (HM781-36B)]")
0.32
>>> measured_value("CC(C)NC(=O)COc1cccc(-c2nc(Nc3ccc4[nH]ncc4c3)c3ccccc3n2)c1")
0.57
>>> measured_value("Cn1ncc(Cl)c1-c1cc(C(=O)N[C@H](CN)Cc2ccc(F)c(F)c2)oc1Cl")
0.39
>>> measured_value("CCN1CCN(Cc2ccc(-c3cc4c(N[C@H](C)c5ccccc5)ncnc4[nH]3)cc2)CC1")
0.95

Exercise: Output thermal shift delta Tm of Cc1ccc(Nc2nccc(N(C)c3ccc4c(C)n(C)nc4c3)n2)cc1S(N)(=O)=O
Solution: 0.96

Exercise: Give the reported value of thermal shift delta Tm for this record: CC(=O)Nc1cccc(-n2c(=O)n(C3CC3)c(=O)c3c(Nc4ccc(I)cc4F)n(C)c(=O)c(C)c32)c1
Solution: 0.23

---

# System: LOC_OS01G63280-cb003
# PROTOCOL_SUMMARY: thermal shift delta Tm vs DMSO control; higher = stronger stabilization (binding)
# MEASUREMENT_CONDITIONS: 12.5 µM; protein concentration 2 µM
Where a name gives a salt, the structure may show the parent alone.
Listed below: thermal shift delta Tm values for each entry.

The following compounds have reported results that may help.
>>> measured_value("CNc1nc(Nc2cn(C(C)(C)C#N)nc2C)ncc1C(F)(F)F")
"0.69 °C"
>>> measured_value("COc1cc2ncnc(Nc3ccc(O)c(Br)c3)c2cc1OC")
"0.92 °C"
>>> measured_value("C=CC(=O)Nc1cccc(Oc2nc(Nc3ccc(N4CCN(C)CC4)cc3)nc3ccsc23)c1")
"0.86 °C"
>>> measured_value("CC(C)CCN1c2nc(Nc3cc(F)c(O)c(F)c3)ncc2N(C)C(=O)C1C (centres undefined)")
"7.85 °C"
>>> measured_value("COc1ccc(CCNCc2ccc(OCc3ccc(Cl)nc3)c(OC)c2)cc1OC")
"-0.28 °C"
>>> measured_value("CNC(=O)c1ccccc1Nc1cc(Nc2ccc(N3CCOCC3)cc2OC)ncc1C(F)(F)F")
"0.52 °C"
>>> measured_value("COC(=O)[C@]12CCC(C)(C)C[C@H]1[C@H]1C(=O)C=C3[C@@]4(C)C=C(C#N)C(=O)C(C)(C)[C@@H]4CC[C@@]3(C)[C@]1(C)CC2 [Bardoxolone Methyl]")
"-6.77 °C"
>>> measured_value("O=C(Nc1ccc(-c2ccnc(Nc3ccc(N4CCOCC4)cc3)n2)cc1)C1CCCN1 (centres undefined)")
"0.08 °C"

Read the next record carefully.
Exercise: Answer with reported thermal shift delta Tm of CNC(=O)c1cc(Oc2ccc(NC(=O)Nc3ccc(Cl)c(C(F)(F)F)c3)cc2)ccn1 [Sorafenib Tosylate]
Solution: 9.15 °C
